Biological target: T1, BCMA-Fc fusion protein (Acrobiosystems, catalog number BC7-H5254) (human, UniProt Q02223 1-54, biotin cross-linked, 3 to 5 biotin molecules per molecule, where the biotinylated antigen is used (ELISA of Table 3); sites not stated)
T1 construct: Bought protein; also called BCMA antigen; BCMA-Fc antigen; not shown: human Fc of the bought fusion protein
T1 sequence (looked up): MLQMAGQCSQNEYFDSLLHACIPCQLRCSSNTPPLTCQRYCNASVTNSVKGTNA
Experiment: ELISA EC50 relative to J6
parameter measured: Fold of J6 (fold)
One number for each entry, in fold.

stdin: Recorded Fold of J6 for B10.9 scFv-Fc (Fc fusion, also called mutant B10.9; not shown: Fc (scFv-Fc)) scFv: QVQLQQSGAEVKKPGSSVKVSCKASGGTFSKSAIQWVRQAPGQGLEWMGGVIPIFGTANYAQKFQGRVTITADESTSTAYMELSSLRSEDTAVYYCARGWYLDLWGRGTLVTVSSASTGGSSRSSSSGGGGSGGGGLPVLTQPPSASGTPGQRVTISCSGSSNNIGGYSVNWYQQFPGTAPKLLIYRNNQRPSGVPDRFSGSKSGASASLAISGLQSEDEADYYCAAWDDSEIGWLFGTGTQLTVL , please?
stdout: 1.43

meta.source: patent US20250011447A1
